- SYSTEM: MERTK (UniProt Q12866)
- Sequence (Q12866 whole entry, looked up): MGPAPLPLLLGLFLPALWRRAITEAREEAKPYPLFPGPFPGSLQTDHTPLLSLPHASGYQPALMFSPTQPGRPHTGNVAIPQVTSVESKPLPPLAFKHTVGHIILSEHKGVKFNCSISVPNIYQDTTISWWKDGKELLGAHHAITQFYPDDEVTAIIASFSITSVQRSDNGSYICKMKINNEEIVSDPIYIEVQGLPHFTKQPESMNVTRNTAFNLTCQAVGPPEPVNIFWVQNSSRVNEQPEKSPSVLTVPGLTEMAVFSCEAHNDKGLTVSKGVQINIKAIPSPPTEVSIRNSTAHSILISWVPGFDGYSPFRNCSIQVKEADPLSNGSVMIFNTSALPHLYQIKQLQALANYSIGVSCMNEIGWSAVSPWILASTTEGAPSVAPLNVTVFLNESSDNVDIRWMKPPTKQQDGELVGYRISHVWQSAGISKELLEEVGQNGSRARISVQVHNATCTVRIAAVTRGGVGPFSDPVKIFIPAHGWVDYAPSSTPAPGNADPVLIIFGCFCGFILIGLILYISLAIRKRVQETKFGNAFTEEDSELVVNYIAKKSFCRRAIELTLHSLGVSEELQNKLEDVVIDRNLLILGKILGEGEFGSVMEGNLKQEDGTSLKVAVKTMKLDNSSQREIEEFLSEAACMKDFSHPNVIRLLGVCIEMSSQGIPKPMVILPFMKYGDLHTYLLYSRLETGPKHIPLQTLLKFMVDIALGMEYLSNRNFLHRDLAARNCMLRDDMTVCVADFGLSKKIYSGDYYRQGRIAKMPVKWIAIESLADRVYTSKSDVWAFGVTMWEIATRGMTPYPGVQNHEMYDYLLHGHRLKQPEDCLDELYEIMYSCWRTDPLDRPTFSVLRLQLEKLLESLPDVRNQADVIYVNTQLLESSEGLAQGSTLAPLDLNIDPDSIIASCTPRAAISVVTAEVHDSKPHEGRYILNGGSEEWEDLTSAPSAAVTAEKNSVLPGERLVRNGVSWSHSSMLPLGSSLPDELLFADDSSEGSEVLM
- EXPERIMENT NOTES: phosphorylation enrichment, bacterial display (enrichment ratio); higher = better substrate or ligand; peptides without Tyr show the background
REPORTED PROPERTY: phosphorylation enrichment
# respond with the number and nothing more

Please fill in: phosphorylation enrichment reported for HTVEDYQAIVD [CCT7_Y263] = 0.734

Please fill in: phosphorylation enrichment reported for APNEFYDGDHD [HDAC3_Y414] = 0.602

Please fill in: phosphorylation enrichment reported for SYSGEYGGGGG [ZG16_Y30] = 0.439

* * *

Assignment: determine reported SH2 binding enrichment for the given sequences.
- SYSTEM: c-Src SH2
- EXPERIMENT NOTES: SH2 binding enrichment of the phosphorylated peptide, bacterial display (enrichment ratio); higher = better substrate or ligand; peptides without Tyr show the background
# respond with the number and nothing more

Please fill in: SH2 binding enrichment reported for PVDVAYRHGYF [PLEC_Y2967_R2969H] = 0.611

Please fill in: SH2 binding enrichment reported for ANQDDYISFRH [IMP4_Y226] = 0.46

Please fill in: SH2 binding enrichment reported for AGIVDYNIIGW [MYH7_Y588] = 0.566

Please fill in: SH2 binding enrichment reported for IKKFKYRIEEH [GJA1_Y137_G138R] = 0.557

Please fill in: SH2 binding enrichment reported for EPNSRYTFKLE [USH2A_Y3745_YF] = 0.476

Please fill in: SH2 binding enrichment reported for LQPNNYQFCGG [CSF1R_Y969] = 1.44

Please fill in: SH2 binding enrichment reported for RGESFYQDTMN [RARS_Y338_R341T] = 0.694

Please fill in: SH2 binding enrichment reported for RGVTRYIYNRE [HLA-DQB1_Y62_Y58G] = 0.527

* * *

- System: c-Abl (mouse)
- EXPERIMENT NOTES: phosphorylation enrichment, bacterial display (enrichment ratio); higher = better substrate or ligand; peptides without Tyr show the background
Assignment: determine reported phosphorylation enrichment for the given sequences.
# respond with the number and nothing more

Item AAILGYCRGEA [XPC_Y669] was tested on c-Abl (mouse); the reported phosphorylation enrichment is 0.718

Item GCKNHYDKDKP [THAP1_Y14_R13H] was tested on c-Abl (mouse); the reported phosphorylation enrichment is 0.736

Item NFAKMYCNPDA [KNL1_Y489_YF] was tested on c-Abl (mouse); the reported phosphorylation enrichment is 0.836

Item KIITDYFVDMK [MPP4_Y566_V562I_YF] was tested on c-Abl (mouse); the reported phosphorylation enrichment is 0.644

Item EDKFMYFEFPQ [PTEN_Y240] was tested on c-Abl (mouse); the reported phosphorylation enrichment is 0.952

Item MSLRSYGSREG [APC_Y96] was tested on c-Abl (mouse); the reported phosphorylation enrichment is 0.491

Item GDEVEYMLVSF [GCLC_Y53] was tested on c-Abl (mouse); the reported phosphorylation enrichment is 0.677

Item EPYELYCEMGS [CBL_Y371_Q367P] was tested on c-Abl (mouse); the reported phosphorylation enrichment is 2.36

Item ILLAGYLVMVI [SLC28A3_Y113] was tested on c-Abl (mouse); the reported phosphorylation enrichment is 0.748

Item DGNIDYAEFAK [MCFD2_Y138_Y135N] was tested on c-Abl (mouse); the reported phosphorylation enrichment is 0.757

Item EKDSNYCLCRT [ASIC2_Y357] was tested on c-Abl (mouse); the reported phosphorylation enrichment is 0.573

Item FPHVIYARLWR [SMAD4_Y95] was tested on c-Abl (mouse); the reported phosphorylation enrichment is 10.1

Item EVVGKYSVHNA [MLH1_Y183_R182K] was tested on c-Abl (mouse); the reported phosphorylation enrichment is 0.527

Item GYGGGYGGVLT [KRT19_Y65_A60G] was tested on c-Abl (mouse); the reported phosphorylation enrichment is 0.468

Item HYGNNYRDVLQ [MACC1_Y803] was tested on c-Abl (mouse); the reported phosphorylation enrichment is 0.438

Item RHFTTYDTNGR [CLCA1_Y665_Y661H] was tested on c-Abl (mouse); the reported phosphorylation enrichment is 0.618

Item DFSLKYATDIP [APC_Y1183_YF] was tested on c-Abl (mouse); the reported phosphorylation enrichment is 0.572

Item LYEDRYLLGPS [ASS1_Y87_T91P] was tested on c-Abl (mouse); the reported phosphorylation enrichment is 0.683

Item GFRPVYSEDEQ [CHST6_Y362_YF] was tested on c-Abl (mouse); the reported phosphorylation enrichment is 1.27

Item SRDTCYLVLAV [AMH_Y195_R194C] was tested on c-Abl (mouse); the reported phosphorylation enrichment is 1.06

Item VVEFGYEFFAK [PPP1CB_Y254_D252Y_YF] was tested on c-Abl (mouse); the reported phosphorylation enrichment is 0.965

Item EPNSRYTFKLE [USH2A_Y3745_YF] was tested on c-Abl (mouse); the reported phosphorylation enrichment is 0.658

Item SNPAYYVLEGV [INPPL1_Y987_N982S] was tested on c-Abl (mouse); the reported phosphorylation enrichment is 0.538

Item HCHEGYVLHGA [SVEP1_Y2921_I2922V] was tested on c-Abl (mouse); the reported phosphorylation enrichment is 0.78

Item KLPYPYDDPFS [GPX2_Y127] was tested on c-Abl (mouse); the reported phosphorylation enrichment is 0.705

Item CKPGFYNLKEK [LAMA1_Y490] was tested on c-Abl (mouse); the reported phosphorylation enrichment is 0.568

Item IVAREYYSKAD [CAMK2B_Y107_E110K] was tested on c-Abl (mouse); the reported phosphorylation enrichment is 0.639

Item ARGMEYLAEQK [MST1R_Y1198_G1195S] was tested on c-Abl (mouse); the reported phosphorylation enrichment is 0.599

Item VVQGIYGYHHH [UFSP2_Y285_Y290H] was tested on c-Abl (mouse); the reported phosphorylation enrichment is 5.2

Item AVHPGYGFLSE [PCCA_Y143] was tested on c-Abl (mouse); the reported phosphorylation enrichment is 0.692

Item EPFEVYRIVPE [IRF8_Y110_K108E_YF] was tested on c-Abl (mouse); the reported phosphorylation enrichment is 0.798

Item LEISPYMLSGR [LRRK2_Y1718] was tested on c-Abl (mouse); the reported phosphorylation enrichment is 0.491

Item IGHGSYAKVLL [PRKCZ_Y263_R260H] was tested on c-Abl (mouse); the reported phosphorylation enrichment is 0.599

Item GDEAIYATVAG [NRTKtide_2018] was tested on c-Abl (mouse); the reported phosphorylation enrichment is 22.1

Item VNLVLHLSIAK [FBXO15_Y496_Y496H] was tested on c-Abl (mouse); the reported phosphorylation enrichment is 0.88

Item RGVTRYIYNRE [HLA-DQB1_Y62_Y58G] was tested on c-Abl (mouse); the reported phosphorylation enrichment is 1

Item FGDTPYIPFRD [CDC14C_Y132] was tested on c-Abl (mouse); the reported phosphorylation enrichment is 0.589

Item VVLGSYDRLRV [IFT172_Y260] was tested on c-Abl (mouse); the reported phosphorylation enrichment is 0.452

Item SDVNKYSTAFG [GJB3_Y16_G12D] was tested on c-Abl (mouse); the reported phosphorylation enrichment is 0.509

Item EADRKYEEVAR [TPM3_Y163] was tested on c-Abl (mouse); the reported phosphorylation enrichment is 1.08

Item QAEELYFGKMG [YES1_Y159_W158L] was tested on c-Abl (mouse); the reported phosphorylation enrichment is 2.25

Item QQLQGYVPSNY [FRK_Y99_I100V] was tested on c-Abl (mouse); the reported phosphorylation enrichment is 0.64

* * *

- SYSTEM: c-Src SH2;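 also: peptide library displayed on the E. coli surface as eCPX fusions, selected cells deep-sequenced, score is each peptide's frequency after selection divided by its frequency in the input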
- EXPERIMENT NOTES: SH2 binding enrichment of the phosphorylated peptide, bacterial display (enrichment ratio); higher = better substrate or ligand; peptides without Tyr show the background
Classify by SH2 binding enrichment. Ranges: class 1: < 0.5; class 2: ≥ 0.5 and < 0.9; class 3: ≥ 0.9

Which SH2 binding enrichment category applies to ERIEFYELNKK [PMM2_Y145_D148N] here?
class 1

Which SH2 binding enrichment category applies to YLQEIHNSNNQ [FGG_Y140_Y140H] here?
class 2

Which SH2 binding enrichment category applies to IGEGTYGQVYK [CDK13_Y716] here?
class 1

Which SH2 binding enrichment category applies to DASAVYLHDFQ [PLCG2_Y242] here?
class 2

Which SH2 binding enrichment category applies to IVWDSYTTNKV [GNB3_Y85] here?
class 2

Which SH2 binding enrichment category applies to LRWREYQRQDY [PRKRIP1_Y90_R87W] here?
class 3

Which SH2 binding enrichment category applies to WEPFGYAVTRC [PTPRT_Y412] here?
class 2

Which SH2 binding enrichment category applies to LSDGPYSNSYE [EPOR_Y485_P488S] here?
class 3

Which SH2 binding enrichment category applies to FALAEYTEVKT [ALDH1A3_Y497_YF] here?
class 3

Which SH2 binding enrichment category applies to WVFNHYRCIIW [BRCA2_Y2624_W2626C_YF] here?
class 2

Which SH2 binding enrichment category applies to AEQDWYHGAIP [FER_Y461] here?
class 2

Which SH2 binding enrichment category applies to TVVGLYQKSSL [MYH7_Y609] here?
class 2

Which SH2 binding enrichment category applies to RVSSVYTRSTG [CCR5_Y339_A335V] here?
class 2

Which SH2 binding enrichment category applies to TNEYEYDELIV [TGM1_Y136_D132N] here?
class 2

Which SH2 binding enrichment category applies to KSEFAYEIFDK [MYOM2_Y1024_L1022F] here?
class 3

Which SH2 binding enrichment category applies to LLREWYMIISR [HUWE1_Y4066] here?
class 3

Which SH2 binding enrichment category applies to RRAVKYLQMVG [AVPR2_Y117_C112R] here?
class 2

Which SH2 binding enrichment category applies to RMGNLYDIDED [GRIN2A_Y1246] here?
class 3

Which SH2 binding enrichment category applies to LIEQAYDNLHE [PRPF8_Y871_P874L] here?
class 3

Which SH2 binding enrichment category applies to LNLDTYQKRLR [PLA2G2D_Y126_R121L] here?
class 1
